ASSAYED SYSTEM: Human M4 (Homo sapiens)
Construct: expressed in transfected cells; host or cells: CHO-K1 (ATCC), stably co-expressing chimeric G protein Gqi5
Sequence (P08173 whole entry): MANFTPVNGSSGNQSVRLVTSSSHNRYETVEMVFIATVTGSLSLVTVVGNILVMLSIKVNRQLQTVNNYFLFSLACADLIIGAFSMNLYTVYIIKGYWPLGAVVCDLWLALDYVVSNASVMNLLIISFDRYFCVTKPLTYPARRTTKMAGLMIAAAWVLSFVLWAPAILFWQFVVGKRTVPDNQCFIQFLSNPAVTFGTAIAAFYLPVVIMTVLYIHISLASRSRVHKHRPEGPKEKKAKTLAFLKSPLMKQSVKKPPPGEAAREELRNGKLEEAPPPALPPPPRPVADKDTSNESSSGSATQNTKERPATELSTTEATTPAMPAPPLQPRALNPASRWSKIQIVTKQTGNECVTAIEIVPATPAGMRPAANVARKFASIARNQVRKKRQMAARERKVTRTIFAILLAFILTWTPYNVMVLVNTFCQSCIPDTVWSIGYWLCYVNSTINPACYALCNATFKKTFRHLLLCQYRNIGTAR
ASSAY EXPLANATION: mAChR M4 cell-based functional assay (calcium flux, antagonist mode vs EC80 acetylcholine), human M4/Gqi5/CHO-K1 cells
CONDITION CONTEXT: CHO-K1; % ACh maximum at 30 μM; human M4; read-out: Human M4 Emin (%)
ENDPOINT NAME: remaining activity at 30 µM (%)

Below are worked cases with known answers.
COMPOUND: O=C(NC1CCCCC1)c1ccc(N[C@H]2C[C@@H]3CN(CC4CCOCC4)C[C@@H]3C2)nn1
remaining activity at 30 µM / %: 6
--
COMPOUND: Cc1cnn(C)c1-c1ccc(N[C@H]2C[C@@H]3CN(C4CCOC(C)(C)C4)C[C@@H]3C2)nn1 (stereo partly shown)
remaining activity at 30 µM / %: 2
--
COMPOUND: Fc1ccc(Cl)c(-c2ccc(N[C@H]3C[C@@H]4CN(C5CCCCC5)C[C@@H]4C3)nn2)c1
remaining activity at 30 µM / %: 4
--
COMPOUND: O=S(=O)(c1ccc(N[C@H]2C[C@@H]3CN(Cc4ccc5[nH]ccc5c4)C[C@@H]3C2)nn1)C1CCCCC1
remaining activity at 30 µM / %: 4
--
COMPOUND: O=S(=O)(c1ccc(N[C@H]2C[C@@H]3CN(Cc4ccc5c(c4)OCO5)C[C@@H]3C2)nn1)C1CCCCC1
remaining activity at 30 µM / %: 4

(1) Cc1cccnc1CN1C[C@H]2C[C@H](Nc3ccc(S(=O)(=O)C4CCCCC4)nn3)C[C@H]2C1
(2) CC1(C)CC(N2C[C@H]3C[C@H](Nc4ccc(-c5ccccc5F)nn4)C[C@H]3C2)CCO1 (stereo partly shown)
Could you determine which record has the numerically smaller remaining activity at 30 µM? Candidates: 1 and 2 When you have decided, please share the label of that item.
2
